- Method: Stability in 20% mouse serum/PBS
- Type: in vitro ADME
- Assay conditions: mouse, 20% mouse serum in PBS
Where a SMILES comes first, the peptide text is derived from it. [ ]: non-standard residue; d: D form. The star is where a group is joined. 2Nal = N[C@@H](Cc1ccc2ccccc2c1)C(=O)O; Cha = N[C@@H](CC1CCCCC1)C(=O)O; Aib = CC(C)(N)C(=O)O; Bz = O=C(c1ccccc1)*
Quantity: remaining at 0.5 h (%)

{"Molecule": "CC[C@H](C)[C@H](NC(=O)[C@H](CC1CCCCC1)NC(=O)[C@H](Cc1c[nH]cn1)NC(=O)[C@H](CCCNC(=N)N)NC(=O)c1ccccc1)C(=O)N[C@@H](CC(N)=O)C(=O)N[C@@H](Cc1c[nH]c2ccccc12)C(=O)NC(C)(C)C(=O)N[C@H](C(=O)N[C@@H](CCCNC(=N)N)C(=O)N[C@@H](CCC(N)=O)C(=O)N[C@@H](CCCNC(=N)N)C(=O)N[C@@H](CC1CCCCC1)C(N)=O)[C@@H](C)O [Compound 11] (Bz-RH[Cha]INW[Aib]TRQR[Cha]-NH2)", "Reported result": 95}
{"Molecule": "CC[C@H](C)[C@H](NC(=O)[C@H](Cc1ccc2ccccc2c1)NC(=O)[C@H](Cc1c[nH]cn1)NC(=O)[C@H](CCCNC(=N)N)NC(=O)c1ccccc1)C(=O)N[C@@H](CC(N)=O)C(=O)N[C@@H](Cc1c[nH]c2ccccc12)C(=O)N[C@H](C(=O)N[C@H](C(=O)N[C@@H](CCCNC(=N)N)C(=O)N[C@@H](CCC(N)=O)C(=O)N[C@@H](CCCNC(=N)N)C(=O)N[C@@H](CC1CCCCC1)C(N)=O)[C@@H](C)O)[C@@H](C)CC [Compound 15] (Bz-RH[2Nal]INWITRQR[Cha]-NH2)", "Reported result": 100}

###

- Method: Pharmacokinetics of PYY analogues in mice
- Format: in vivo
- Assay conditions: C57BL/6J, mouse, plasma, ip, 1 mg/kg
Where a SMILES comes first, the peptide text is derived from it. [ ]: non-standard residue; d: D form. The star is where a group is joined. Cha = N[C@@H](CC1CCCCC1)C(=O)O; Aib = CC(C)(N)C(=O)O; Bz = O=C(c1ccccc1)*

{"Molecule": "CC(C)C[C@H](NC(=O)[C@H](CC(N)=O)NC(=O)[C@H](CC1CCCCC1)NC(=O)[C@H](CC1CCCCC1)NC(=O)[C@H](Cc1cnc[nH]1)NC(=O)[C@H](CCCNC(=N)N)NC(=O)c1ccccc1)C(=O)NC(C)(C)C(=O)N[C@H](C(=O)N[C@@H](CCCNC(=N)N)C(=O)N[C@@H](CCC(N)=O)C(=O)N[C@@H](CCCNC(=N)N)C(=O)N[C@@H](CC1CCCCC1)C(N)=O)[C@@H](C)O [Compound 21, benzoyl-[Cha^27,28,36,Aib^31]PYY(25–36)] (Bz-RH[Cha][Cha]NL[Aib]TRQR[Cha]-NH2)", "U": "%", "bioavailability": 6.8}

###

- Method: Pharmacokinetics of PYY analogues in mice
- Assay type: in vivo
- Assay conditions: C57BL/6J, mouse, plasma, ip, 1 mg/kg
Where a SMILES comes first, the peptide text is derived from it. [ ]: non-standard residue; d: D form. The star is where a group is joined. Cha = N[C@@H](CC1CCCCC1)C(=O)O; Aib = CC(C)(N)C(=O)O; Bz = O=C(c1ccccc1)*

{"Molecule": "CC(C)C[C@H](NC(=O)[C@H](CC(N)=O)NC(=O)[C@H](CC1CCCCC1)NC(=O)[C@H](CC1CCCCC1)NC(=O)[C@H](Cc1cnc[nH]1)NC(=O)[C@H](CCCNC(=N)N)NC(=O)c1ccccc1)C(=O)NC(C)(C)C(=O)N[C@H](C(=O)N[C@@H](CCCNC(=N)N)C(=O)N[C@@H](CCC(N)=O)C(=O)N[C@@H](CCCNC(=N)N)C(=O)N[C@@H](CC1CCCCC1)C(N)=O)[C@@H](C)O [Compound 21, benzoyl-[Cha^27,28,36,Aib^31]PYY(25–36)] (Bz-RH[Cha][Cha]NL[Aib]TRQR[Cha]-NH2)", "MRT (h)": 1.25}

###

- Target: human Y2R (Homo sapiens)
- Sequence (P49146 1-381): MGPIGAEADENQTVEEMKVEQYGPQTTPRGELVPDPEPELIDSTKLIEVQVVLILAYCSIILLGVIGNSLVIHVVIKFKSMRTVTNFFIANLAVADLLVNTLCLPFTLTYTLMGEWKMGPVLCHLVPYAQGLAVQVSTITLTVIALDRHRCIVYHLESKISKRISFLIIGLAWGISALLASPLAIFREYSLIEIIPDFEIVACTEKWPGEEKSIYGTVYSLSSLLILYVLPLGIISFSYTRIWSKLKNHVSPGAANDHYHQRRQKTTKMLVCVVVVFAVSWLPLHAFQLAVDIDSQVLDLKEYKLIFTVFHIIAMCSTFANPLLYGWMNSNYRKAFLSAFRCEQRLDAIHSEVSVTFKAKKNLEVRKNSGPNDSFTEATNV
- Method: biochemical
Where a SMILES comes first, the peptide text is derived from it. [ ]: non-standard residue; d: D form. The star is where a group is joined. Phe(4-F) = N[C@@H](Cc1ccc(F)cc1)C(=O)O; 1Nal = N[C@@H](Cc1cccc2ccccc12)C(=O)O; 2Nal = N[C@@H](Cc1ccc2ccccc2c1)C(=O)O; Cyclohexanecarbonyl = O=C(C1CCCCC1)*; Cha = N[C@@H](CC1CCCCC1)C(=O)O; Aib = CC(C)(N)C(=O)O; Bz = O=C(c1ccccc1)*
Measured EC50 of individual entries

{"Compound": "C[C@@H](O)[C@H](NC(=O)C(C)(C)NC(=O)[C@H](Cc1ccc(F)cc1)NC(=O)[C@H](CC(N)=O)NC(=O)[C@H](CC1CCCCC1)NC(=O)[C@H](CC1CCCCC1)NC(=O)[C@H](Cc1c[nH]cn1)NC(=O)[C@H](CCCNC(=N)N)NC(=O)C1CCCCC1)C(=O)N[C@@H](CCCNC(=N)N)C(=O)N[C@@H](CCC(N)=O)C(=O)N[C@@H](CCCNC(=N)N)C(=O)N[C@@H](CC1CCCCC1)C(N)=O [Compound 28] (Cyclohexanecarbonyl-RH[Cha][Cha]N[Phe(4-F)][Aib]TRQR[Cha]-NH2)", "Target": "human Y2R (Homo sapiens)", "U": "nM", "EC50": 7.2}
{"Compound": "CC(C)C[C@H](NC(=O)[C@H](CC(N)=O)NC(=O)[C@H](Cc1cccc2ccccc12)NC(=O)[C@H](CC1CCCCC1)NC(=O)[C@H](Cc1c[nH]cn1)NC(=O)[C@H](CCCNC(=N)N)NC(=O)c1ccccc1)C(=O)NC(C)(C)C(=O)N[C@H](C(=O)N[C@@H](CCCNC(=N)N)C(=O)N[C@@H](CCC(N)=O)C(=O)N[C@@H](CCCNC(=N)N)C(=O)N[C@@H](CC1CCCCC1)C(N)=O)[C@@H](C)O [Compound 19] (Bz-RH[Cha][1Nal]NL[Aib]TRQR[Cha]-NH2)", "Target": "human Y2R (Homo sapiens)", "U": "nM", "EC50": 2.7}
{"Compound": "CC(C)C[C@H](NC(=O)[C@H](CC(N)=O)NC(=O)[C@H](CC1CCCCC1)NC(=O)[C@H](Cc1ccc2ccccc2c1)NC(=O)[C@H](Cc1c[nH]cn1)NC(=O)[C@H](CCCNC(=N)N)NC(=O)C1CCCCC1)C(=O)NC(C)(C)C(=O)N[C@H](C(=O)N[C@@H](CCCNC(=N)N)C(=O)N[C@@H](CCC(N)=O)C(=O)N[C@@H](CCCNC(=N)N)C(=O)N[C@@H](CC1CCCCC1)C(N)=O)[C@@H](C)O [Compound 29] (Cyclohexanecarbonyl-RH[2Nal][Cha]NL[Aib]TRQR[Cha]-NH2)", "Target": "human Y2R (Homo sapiens)", "U": "nM", "EC50": 14}

###

- Target: human Y2R (Homo sapiens)
Where a SMILES comes first, the peptide text is derived from it. [ ]: non-standard residue; d: D form. The star is where a group is joined. Cha = N[C@@H](CC1CCCCC1)C(=O)O; Isobutyryl = CC(C)C(=O)*; Nle = CCCC[C@H](N)C(=O)O; Aib = CC(C)(N)C(=O)O; Bz = O=C(c1ccccc1)*
Quantity: IC50 (nM)

{"Compound": "CC[C@H](C)[C@H](NC(=O)[C@H](CC1CCCCC1)NC(=O)[C@H](Cc1c[nH]cn1)NC(=O)[C@H](CCCNC(=N)N)NC(=O)c1ccccc1)C(=O)N[C@@H](CC(N)=O)C(=O)N[C@@H](CC(C)C)C(=O)N[C@H](C(=O)N[C@H](C(=O)N[C@@H](CCCNC(=N)N)C(=O)N[C@@H](CCC(N)=O)C(=O)N[C@@H](CCCNC(=N)N)C(=O)N[C@@H](CC1CCCCC1)C(N)=O)[C@@H](C)O)[C@@H](C)CC [Compound 4] (Bz-RH[Cha]INLITRQR[Cha]-NH2)", "Target": "human Y2R (Homo sapiens)", "U": "nM", "Reported result": 7.2}
{"Compound": "CC[C@H](C)[C@H](NC(=O)[C@H](CC1CCCCC1)NC(=O)[C@H](Cc1c[nH]cn1)NC(=O)[C@H](CCCNC(=N)N)NC(=O)c1ccccc1)C(=O)N[C@@H](CC(N)=O)C(=O)N[C@@H](Cc1c[nH]c2ccccc12)C(=O)N[C@H](C(=O)N[C@H](C(=O)N[C@@H](CCCNC(=N)N)C(=O)N[C@@H](CCC(N)=O)C(=O)N[C@@H](CCCNC(=N)N)C(=O)N[C@@H](CC1CCCCC1)C(N)=O)[C@@H](C)O)[C@@H](C)CC [Compound 5] (Bz-RH[Cha]INWITRQR[Cha]-NH2)", "Target": "human Y2R (Homo sapiens)", "U": "nM", "Reported result": 9.8}
{"Compound": "CC(C)C[C@H](NC(=O)[C@H](CC(N)=O)NC(=O)[C@H](CC1CCCCC1)NC(=O)[C@H](CC1CCCCC1)NC(=O)[C@H](Cc1c[nH]cn1)NC(=O)[C@H](CCCNC(=N)N)NC(=O)C(C)C)C(=O)NC(C)(C)C(=O)N[C@H](C(=O)N[C@@H](CCCNC(=N)N)C(=O)N[C@@H](CCC(N)=O)C(=O)N[C@@H](CCCNC(=N)N)C(=O)N[C@@H](CC1CCCCC1)C(N)=O)[C@@H](C)O [Compound 23] (Isobutyryl-RH[Cha][Cha]NL[Aib]TRQR[Cha]-NH2)", "Target": "human Y2R (Homo sapiens)", "U": "nM", "Reported result": 3.1}
{"Compound": "CC[C@H](C)[C@H](NC(=O)[C@H](Cc1ccc(O)cc1)NC(=O)[C@H](C)NC(=O)[C@H](CCCNC(=N)N)NC(=O)c1ccccc1)C(=O)N[C@@H](CC(N)=O)C(=O)N[C@@H](CC(C)C)C(=O)N[C@H](C(=O)N[C@H](C(=O)N[C@@H](CCCNC(=N)N)C(=O)N[C@@H](CCC(N)=O)C(=O)N[C@@H](CCCNC(=N)N)C(=O)N[C@@H](CC1CCCCC1)C(N)=O)[C@@H](C)O)[C@@H](C)CC [Compound 2] (Bz-RAYINLITRQR[Cha]-NH2)", "Target": "human Y2R (Homo sapiens)", "U": "nM", "Reported result": 3.2}
{"Compound": "CCCC[C@H](NC(=O)[C@H](CC(C)C)NC(=O)[C@H](CC(N)=O)NC(=O)[C@@H](NC(=O)[C@H](CC1CCCCC1)NC(=O)[C@H](Cc1c[nH]cn1)NC(=O)[C@H](CCCNC(=N)N)NC(=O)c1ccccc1)[C@@H](C)CC)C(=O)N[C@H](C(=O)N[C@@H](CCCNC(=N)N)C(=O)N[C@@H](CCC(N)=O)C(=O)N[C@@H](CCCNC(=N)N)C(=O)N[C@@H](CC1CCCCC1)C(N)=O)[C@@H](C)O [Compound 7] (Bz-RH[Cha]INL[Nle]TRQR[Cha]-NH2)", "Target": "human Y2R (Homo sapiens)", "U": "nM", "Reported result": 13}

Origin of the recorded values: paper PMC6044503
